# ASSAY_COMMENT: chemical genetic growth profiling, strain panel (AID 1159580);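 note: tested at 20 µM; growth read once vehicle control cultures reached saturation at 30 °C; 1 = growth at the plate median or of vehicle wells; lower values mean less growth of the strain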
# EXPERIMENTAL_PARAMETERS: S. cerevisiae deletion strains, growth OD, locus YNL271C, strain bni1, stronger effect = lower value
Hit rate of the full screen: of about 5,500 compounds, about 2,000 (36%) were called active. Roughly 18% stayed inconclusive and do not appear here. The list shows a part of the results.
READOUT_TYPE: normalized growth

The recorded normalized growth for entry CCCCOc1cc(C(=O)NCCN(CC)CC)c2ccccc2n1 equals 0.991 (inactive)

The recorded normalized growth for entry O=C(O)C1=C[C@@H](O)[C@@H](O)[C@H](O)C1 equals 1.01 (inactive)

The recorded normalized growth for entry COC(=O)[C@@]1(C)CCC[C@]2(C)c3ccc(O)c(C(C)C)c3CCC12 (stereo not given in full) equals 0.971 (inactive)

Next:
The recorded normalized growth for entry O=C(Cc1cccs1)NC1C(=O)N2C(C(=O)[O-])=C(C[n+]3ccccc3)CSC12 (stereo not given) equals 0.992 (inactive)

The recorded normalized growth for entry COC(=O)C1OC(=O)C2OC23C1(C)CCC1C2(C)C(OC(C)=O)CC(OC(C)=O)C(C)(C)C2CC(=O)C13C (stereo not given) equals 0.995 (inactive)

The recorded normalized growth for entry CC(=O)Oc1ccc2c(c1C(C)C)CCC1C(C)(C)CCC[C@]21C (stereo not given in full) equals 0.996 (inactive)

The recorded normalized growth for entry CC(=O)Oc1ccc2c(c1OC(C)=O)OCC1(O)Cc3c(cc(OC(C)=O)c(OC(C)=O)c3OC(C)=O)C21 (stereo not given) equals 0.976 (inactive)

The recorded normalized growth for entry CC(C)c1c(O)ccc2c1CCC1[C@@](C)(C=O)CCC[C@]21C (stereo not given in full) equals 0.875 (active)

The recorded normalized growth for entry C[N+](C)(C)CC(O)CC(=O)O (stereo not given) equals 0.996 (inactive)

The recorded normalized growth for entry COC(=O)C[C@H]1C(C)(C)C2(Cl)O[C@@]34CC2C(=O)[C@]1(C)C3CC[C@]1(C)C4=CC(=O)O[C@H]1c1ccoc1 (stereo not given in full) equals 0.998 (inactive)
